- tested_system: human kinase Mps-1 (Homo sapiens, UniProt P33981)
- Construct: N-terminally GST-tagged human full length recombinant Mps-1 kinase; GST (N); purchased Invitrogen, Karslruhe, Germany PV4071
- Sequence (P33981 whole entry): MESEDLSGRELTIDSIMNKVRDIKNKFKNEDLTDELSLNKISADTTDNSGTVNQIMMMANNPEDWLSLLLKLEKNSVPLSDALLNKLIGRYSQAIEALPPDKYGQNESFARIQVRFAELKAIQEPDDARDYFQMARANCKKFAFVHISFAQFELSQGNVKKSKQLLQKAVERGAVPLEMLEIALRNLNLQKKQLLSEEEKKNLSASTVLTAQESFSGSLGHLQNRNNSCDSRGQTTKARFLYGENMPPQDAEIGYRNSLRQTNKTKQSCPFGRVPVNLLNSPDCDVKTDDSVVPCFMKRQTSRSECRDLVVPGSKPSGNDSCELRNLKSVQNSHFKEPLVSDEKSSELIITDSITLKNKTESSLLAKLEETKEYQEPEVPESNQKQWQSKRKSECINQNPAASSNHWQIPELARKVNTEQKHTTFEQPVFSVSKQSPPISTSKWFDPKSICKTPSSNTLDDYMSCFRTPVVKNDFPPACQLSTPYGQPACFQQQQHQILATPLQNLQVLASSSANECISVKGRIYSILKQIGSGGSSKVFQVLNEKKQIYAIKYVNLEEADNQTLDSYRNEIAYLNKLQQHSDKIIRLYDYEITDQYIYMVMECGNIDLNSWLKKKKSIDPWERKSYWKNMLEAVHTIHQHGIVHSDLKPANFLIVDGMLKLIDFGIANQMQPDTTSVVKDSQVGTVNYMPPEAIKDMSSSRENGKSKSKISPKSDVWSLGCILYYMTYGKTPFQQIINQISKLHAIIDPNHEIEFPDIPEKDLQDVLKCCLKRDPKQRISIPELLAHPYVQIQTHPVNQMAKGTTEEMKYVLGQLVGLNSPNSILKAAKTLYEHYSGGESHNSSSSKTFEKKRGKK
- experiment_notes: Mps-1 kinase assay (TR-FRET)
- Type: biochemical
- reported_conditions: GST-tagged human full length recombinant Mps-1; 10 μM ATP; 1 μM peptide substrate; 60 min at 22° C.
test_readout: IC50 (nM)

A selection of reference data follows.
CC(C)CNc1nc(-c2ccncc2)cn2c(-c3ccc(C(=O)NC4CC4)c(Cl)c3)cnc12    6.2
Cc1cc(-c2cnc3c(NCC(C)C)nc(-c4ccncc4)cn23)ccc1C(=O)NC1CC1    1.5
Cc1cc(-c2cnc3c(NCCC(F)(F)F)nc(C4=CCSCC4)cn23)ccc1C(=O)NC1CC1    2.8
NCCCCNc1nc(-c2cccc(CC(N)=O)c2)cn2c(-c3ccc(C(=O)NC4CC4)cc3)cnc12    19.2
COCCCNc1nc(-c2ccncc2)cn2c(-c3ccc(C(=O)NC4CC4)cc3)cnc12    5.5
O=C(NC1CC1)c1ccc(-c2cnc3c(NCCCO)nc(-c4ccncc4)cn23)cc1    9.1
COc1cc(C(=O)NC2CC2)ccc1-c1cnc2c(NCCCN)nc(-c3ccnn3C)cn12    531
C=CCNc1nc(-c2ccccc2)cn2c(-c3ccc(C(=O)NC4CC4)cc3)cnc12    3.6
Cn1nccc1CNc1nc(-c2ccoc2)cn2c(-c3ccc(C(=O)NC4CC4)c(F)c3)cnc12    4.3
Cc1cc(-c2cnc3c(NCCC(F)(F)F)nc(-c4ccncc4)cn23)ccc1C(=O)NC1CC1    1.3

[P] Cc1cc(-c2cnc3c(NCCC(C)CO)nc(C4=CCOCC4)cn23)ccc1C(=O)NC1CC1 (centres unmarked)
[Q] COc1ncc(-c2cn3c(-c4ccc(C(=O)NC5CC5)cc4)cnc3c(NCC(C)C)n2)cn1
Query: Between P and Q , which one shows the larger IC50 value? Answer by stating the label of the chosen item.
Reply: P

[P] NCCCNc1nc(-c2ccncc2)cn2c(-c3ccc(C(=O)NC4CC4)c(Cl)c3)cnc12
[Q] Cc1nnc(-c2ccc(-c3cn4c(-c5ccc(C(=O)NC6CC6)cc5)cnc4c(NCC(C)C)n3)cc2)o1
[R] NC/C=C\CCNc1nc(-c2ccccc2)cn2c(-c3ccc(C(=O)NC4CC4)cc3)cnc12
Query: Order the items by recorded IC50; the first position goes to the largest value. Respond with an ordered listing of the labels, as requested.
Reply: P, R, Q

[P] CC(C)(O)CNc1nc(-c2ccoc2)cn2c(-c3ccc(C(=O)NC4CC4)c(Cl)c3)cnc12
[Q] CC(=O)Nc1ccc(-c2cn3c(-c4ccc(C(=O)NC5CC5)cc4)cnc3c(NCC(C)C)n2)cn1
Query: Returns: the label, P or Q , whose recorded IC50 is the lower number. Answer by stating the label of the chosen item.
Reply: Q
(Q: 8.9 nM, P: 55.3 nM)

Numbers sourced from patent US20140135319A1.
